- system: Aminopeptidase N (Plasmodium falciparum (isolate 3D7)) (UniProt O96935)
- Sequence (O96935 whole entry, looked up): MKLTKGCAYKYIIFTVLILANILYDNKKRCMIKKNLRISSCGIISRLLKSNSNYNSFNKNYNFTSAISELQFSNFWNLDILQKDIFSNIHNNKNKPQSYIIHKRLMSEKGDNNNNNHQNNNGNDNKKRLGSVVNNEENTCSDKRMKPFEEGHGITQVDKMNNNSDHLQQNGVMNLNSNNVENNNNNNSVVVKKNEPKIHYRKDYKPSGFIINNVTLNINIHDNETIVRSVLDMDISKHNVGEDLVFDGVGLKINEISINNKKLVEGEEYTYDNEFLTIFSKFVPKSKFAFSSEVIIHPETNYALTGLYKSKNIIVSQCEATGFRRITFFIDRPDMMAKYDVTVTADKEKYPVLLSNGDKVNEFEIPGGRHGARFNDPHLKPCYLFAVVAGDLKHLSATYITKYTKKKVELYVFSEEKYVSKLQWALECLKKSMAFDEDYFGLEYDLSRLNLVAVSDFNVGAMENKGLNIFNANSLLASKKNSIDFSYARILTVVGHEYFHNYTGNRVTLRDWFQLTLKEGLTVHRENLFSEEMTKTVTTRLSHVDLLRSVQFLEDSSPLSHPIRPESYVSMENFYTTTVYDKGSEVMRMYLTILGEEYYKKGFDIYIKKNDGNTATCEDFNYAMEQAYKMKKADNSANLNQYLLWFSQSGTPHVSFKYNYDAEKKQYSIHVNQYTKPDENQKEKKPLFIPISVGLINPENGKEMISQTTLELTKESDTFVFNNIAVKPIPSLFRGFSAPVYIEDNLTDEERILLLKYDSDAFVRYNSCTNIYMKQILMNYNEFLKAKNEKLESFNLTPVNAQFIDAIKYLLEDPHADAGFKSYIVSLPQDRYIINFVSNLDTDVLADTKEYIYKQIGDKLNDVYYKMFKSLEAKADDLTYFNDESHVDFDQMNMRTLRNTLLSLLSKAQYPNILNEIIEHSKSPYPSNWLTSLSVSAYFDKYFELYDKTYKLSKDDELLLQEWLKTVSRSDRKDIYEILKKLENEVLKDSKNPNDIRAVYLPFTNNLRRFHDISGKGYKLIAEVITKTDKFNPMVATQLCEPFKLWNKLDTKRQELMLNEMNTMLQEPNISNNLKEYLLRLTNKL
- experiment summary: malaria alanyl aminopeptidase activity blockers – biochemical, fluorogenic H-Leu-NHMec substrate, 1536-well (AID 1445)
- stated conditions: recombinant M1AAP, H-Leu-NHMec fluorogenic kinetic assay; at 30 µM
The whole screen tested about 220,000 compounds, of which about 910 (0.41%) were called active.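 Rule for the calls: active = primary inhibition above the hit cutoff, then over 50% inhibition at one or more dose response concentrations (cut at about 23% in these data, passing the limit was not always enough); inconclusive = conflicting primary data, or primary hits not chosen for dose response; inactive = low primary inhibition, or under 50% at every dose.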 The full list was thinned out, with actives kept by preference. Potency and affinity values are given separately.
Choose one outcome from this list and give only that: active, inactive

COc1ccc2[nH]cc(CCN=C3SCC(=O)N3C)c2c1: inactive

stdin: What classification did `COc1ccccc1NC(=O)Cn1nc(Cc2cccnc2)c2ccccc2c1=O` end up with in this test?
stdout: inactive

stdin: Dear colleague, could you share the recorded outcome for Cc1ccc(-c2ccc(C3C(C#N)=C(N)Oc4n[nH]c(C)c43)o2)cc1 (centres undefined) when you have a moment?
stdout: inactive

stdin: Dear all, I need the recorded test outcome for `CCOC(=O)N1CCN(C(=O)CCl)CC1` , thank you.
stdout: inactive

stdin: Hey, what did the test say about Cc1ccc(S(=O)(=O)N2c3ccccc3CC2C)cc1 (centres undefined) ?
stdout: inactive

stdin: // param item: `O=C(CNC(=O)c1ccccc1Br)N/N=C/c1ccc(O)cc1` ; yields the recorded call
stdout: inactive

stdin: // return assay outcome for `O=C(Nc1ccc2oc(-c3ccc(F)cc3)nc2c1)c1ccccc1F`
stdout: inactive

stdin: In this assay, the call recorded for `CCN(CC)CCOC(=O)c1ccc(N/C=C(/C#N)c2nc(-c3ccc(OC)cc3)cs2)cc1` was what?
stdout: inactive
